molecular target: human MAO-B (Homo sapiens, UniProt P27338); construct: purchased BD Biosciences (MA, USA); assay: MAO-B activity, colorimetric method, benzylamine substrate; assay type: biochemical; conditions: ratio of IC50 for MAO-B to IC50 for SSAO
Sequence (P27338 whole entry): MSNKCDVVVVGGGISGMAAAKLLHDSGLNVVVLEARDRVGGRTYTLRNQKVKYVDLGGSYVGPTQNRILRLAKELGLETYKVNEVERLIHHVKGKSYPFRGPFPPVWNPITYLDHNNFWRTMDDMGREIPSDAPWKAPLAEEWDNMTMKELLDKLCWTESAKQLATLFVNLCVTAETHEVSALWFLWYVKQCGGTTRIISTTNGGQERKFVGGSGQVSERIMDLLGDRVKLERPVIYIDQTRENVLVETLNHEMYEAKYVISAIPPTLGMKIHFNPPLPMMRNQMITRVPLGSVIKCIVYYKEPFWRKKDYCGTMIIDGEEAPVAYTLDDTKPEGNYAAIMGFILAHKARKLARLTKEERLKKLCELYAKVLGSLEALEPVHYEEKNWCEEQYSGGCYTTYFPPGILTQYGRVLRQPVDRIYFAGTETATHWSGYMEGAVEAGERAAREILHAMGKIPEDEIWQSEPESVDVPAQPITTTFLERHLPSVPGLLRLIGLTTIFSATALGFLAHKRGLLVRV
Where a name gives a salt, the structure may show the parent alone.
Kindly state Specificity of SSAO on MAO-B for each of the entries shown.

Notebook: "NC/C(F)=C\Cc1cc(F)cc(C(F)(F)F)c1" , Specificity of SSAO on MAO-B read as >2400

Notebook: "Cl.NC/C(F)=C\Cc1cccc(SC(F)(F)F)c1" , Specificity of SSAO on MAO-B read as >34780

Notebook: COc1cccc(C/C(C)=C(/F)CN)c1 [II-18-E, hydrochloride] , Specificity of SSAO on MAO-B read as >3448

Notebook: "Cl.NC/C(F)=C\Cc1ccc(F)cc1" , Specificity of SSAO on MAO-B read as >3333
